Source listed as the supplement of paper PMC10567573.

test: protein stability index of a GFP-peptide fusion (GPS, HEK-293T) (PSI 1-6); higher = more stable; details: treatment: DMSO; c terminus: a fixed tail appended;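 also: 24-mer peptide tiles fused after GFP, lentivirally expressed, FACS-sorted into six equal bins by GFP/DsRed ratio, decoded by Illumina sequencing, PSI is the read-weighted mean bin number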
// 0 (no) strictly below 3 in protein stability index; 1 (yes) otherwise

>  <QUERY_SEQUENCE>
KTIKRPFGVKYNPYTRSIQILKDT [TPH1]

>  <ASSIGNED_CLASS>
0 (no)

$$$$
>  <QUERY_SEQUENCE>
WRFVLQRLVFLAAFVVYLETETLV [TSN]

>  <ASSIGNED_CLASS>
0 (no)

$$$$
>  <QUERY_SEQUENCE>
PRFHMACPTFRVSIARLEMGPDEY [FBXO3]

>  <ASSIGNED_CLASS>
0 (no)

$$$$
>  <QUERY_SEQUENCE>
AMFPETLDEGMQIPSTQFDAAHPT [CTNNB1]

>  <ASSIGNED_CLASS>
1 (yes)

$$$$
>  <QUERY_SEQUENCE>
IVRLHDSISEEGFHYLVFDLVTGG [CAMK2B]

>  <ASSIGNED_CLASS>
0 (no)

$$$$
>  <QUERY_SEQUENCE>
TGVELAPRSAEPGYLVTKVVAVDR [PCDHGA10]

>  <ASSIGNED_CLASS>
1 (yes)

$$$$
>  <QUERY_SEQUENCE>
LTINPAKRITAHEALKHPWVCQRS [CAMK2B]

>  <ASSIGNED_CLASS>
0 (no)

$$$$
>  <QUERY_SEQUENCE>
LRGPSPWGFRLVGGRDFSAPLTIS [PDLIM4]

>  <ASSIGNED_CLASS>
0 (no)

$$$$
>  <QUERY_SEQUENCE>
SAQAPPDSISLHQPCNPPAPAGDK [DMRTC1]

>  <ASSIGNED_CLASS>
1 (yes)

$$$$
>  <QUERY_SEQUENCE>
LYLLSGSIIAVAMQRGARLPAEVA [POMT2]

>  <ASSIGNED_CLASS>
0 (no)

$$$$

Does VTNPHSSQWKDPALSQLICFCRES [GADD45A] have a reported protein stability index of at least 3?
0 (no)

Hi, just wondering whether EFEAVVRQAELAIERCIFPERIYQ [PI4K2A] shows protein stability index of 3 or higher.
0 (no)

Determine whether measured protein stability index meets or exceeds 3 for FCVALSDYDLVLAEDEEMNRMHES [GNAI1]
1 (yes)

----------
test: protein stability index of a GFP-peptide fusion (GPS, HEK-293T) (PSI 1-6); higher = more stable; conditions: treatment: DMSO; c terminus: a fixed tail appended
Param threshold (4) applies to protein stability index; output fulfilled when value >= threshold, not fulfilled when value < threshold.

>  <QUERY_SEQUENCE>
SKKFKNCFQSCLCCCCYQSKSLMT [EDNRA]

>  <ASSIGNED_CLASS>
not fulfilled

$$$$
>  <QUERY_SEQUENCE>
DALGMDPMMEHEMGGHHPGADYPV [CTNNB1]

>  <ASSIGNED_CLASS>
fulfilled

$$$$
>  <QUERY_SEQUENCE>
GPQPTMEGDVLDTLEALGYKGPLL [FAM98B]

>  <ASSIGNED_CLASS>
fulfilled

$$$$
>  <QUERY_SEQUENCE>
GGTLAEFIQKRCNSLLEEETILHF [NEK8]

>  <ASSIGNED_CLASS>
not fulfilled

$$$$
>  <QUERY_SEQUENCE>
SRWSEASRAILQRVQAAAFGPGQT [ALKBH7]

>  <ASSIGNED_CLASS>
not fulfilled

$$$$
>  <QUERY_SEQUENCE>
LELVKYLLAAGANVHATTATGDTA [ANKRD17]

>  <ASSIGNED_CLASS>
not fulfilled

$$$$

Please find the next sequence below.
Has EDWVLLGMANGQQWLQSTSGSQRH [TLE6] a recorded protein stability index greater than or equal to 4?
not fulfilled
